Data credit: ChEMBL document CHEMBL1201862

Test system: SW-620
Experiment: NCI tumour cell line growth inhibition, 48 h
Activity calls are given as the source filed them. No stated cut-off is given here; in the data, active = GI50 up to about 1.1 µM and inactive = higher.
For each of the molecules below, state its GI50.

Go through the list and state GI50 for each entry.
1. N#CCCN(c1ccc(/C=N/c2cccc([N+](=O)[O-])c2)cc1)S(=O)(=O)c1ccccc1
2. Cc1ccccc1/N=N/c1ccc(/N=N/c2c(O)ccc3ccccc23)c(C)c1
3. N#C/C(=C\c1cc(O)ccc1O)C(N)=O
4. COc1ccc(/C=C2\N=C(c3ccccc3)N(C3Nc4cc5c(cc4S3)NC(N3C(=O)/C(=C/c4ccc(OC)cc4)N=C3c3ccccc3)S5)C2=O)cc1 (stereo not drawn)
5. NCC(=O)NC1(c2cc3ccccc3s2)CCCCC1

stdout:
1. > 100 µM (inactive)
2. > 100 µM (inactive)
3. 49.9 µM (inactive)
4. 61.5 µM (inactive)
5. 91 µM (inactive)
